Data provenance is patent US20230026616A1.

Assay: Pharmacokinetic evaluation in cynomolgus monkeys
Type: in vivo, Male cynomolgus monkeys
Details: male, 5 mg/kg; cynomolgus monkey plasma, PO 5 mpk
observable: Tmax (h)
Only the number, expressed in h, is required.

Query: // fetch Tmax given entry Cc1cc2ncnn2cc1Nc1ncc2c(n1)n(N1CC3CCC(C1)O3)c(=O)n2C
Result: 1.17

----------
Experiment: Pharmacokinetic evaluation (1): cassette PK in Balb/c male mice, plasma
Assay type: in vivo
Settings: male, Balb/c; mouse plasma, PO 5 mg/kg
observable: Cmax
Answer as a quantity: numeral, then unit.

Query: // fetch Cmax given entry Cc1cc2ncnn2cc1Nc1ncc2c(n1)n(N1CC3CCC(C1)O3)c(=O)n2C [Compound 5]
Result: 2170 nM

----------
Assay: Pharmacokinetic and brain exposure evaluation in rats
Format: in vivo, SD male rats
Settings: male, SD, 10 mg/kg; rat plasma, PO 10 mpk
observable: Tmax (h)
Only the number, expressed in h, is required.

Query: // fetch Tmax given entry Cc1cc2nncn2cc1Nc1ncc2c(n1)n(N1CC3CCC(C1)O3)c(=O)n2C [Compound 17]
Result: 2

----------
Test: Pharmacokinetic and brain exposure evaluation in rats
Type: in vivo, SD male rats
Details: male, SD, 1 mg/kg; rat plasma, IV 1 mpk
observable: C0 (µM)
Only the number, expressed in µM, is required.

Query: // fetch C0 given entry Cc1cc2ncnn2cc1Nc1ncc2c(n1)n(N1CC3CCC(C1)O3)c(=O)n2C [Compound 5]
Result: 3.04

----------
Assay: Pharmacokinetic and brain exposure evaluation in rats
Format: in vivo, SD male rats
Conditions: male, SD, 40 mg/kg; rat, PO 40 mpk, Cerebrospinal fluid; read-out: Cmax
observable: Cmax (nM)
Only the number, expressed in nM, is required.

Query: // fetch Cmax given entry Cc1cc2ncnn2cc1Nc1ncc2c(n1)n(N1CC3CCC(C1)O3)c(=O)n2C
Result: 1260

----------
Assay: Pharmacokinetic evaluation (1): cassette PK in Balb/c male mice, plasma
Assay type: in vivo
Conditions: mouse plasma, PO 2 mg/kg
Protocol: Test compounds were mixed with 10% dimethyl sulfoxide/50% polyethylene glycol 200/40% water (compounds 1, 4, 10, 17) or 20% N,N-dimethylacetamide/80% water (compound 5), vortexed and sonicated to prepare a nearly clear solution of 0.08 mg/mL (compounds 1, 4, 10, 17) or 0.50 mg/mL (compound 5), then filtered through a microporous membrane for next step. […]
Let's look at some molecules and their measured Tlast.

{"smilesRepresentation": "Cc1cc2nncn2cc1Nc1ncc2c(n1)n(N1CC3CCC(C1)O3)c(=O)n2C", "Tlast": "8 h"}

Query: // fetch Tlast given entry Cc1cc2ncnn2cc1Nc1ncc2c(n1)n(N1CCOC3(CC3)C1)c(=O)n2C
Result: 8 h

Query: // fetch Tlast given entry Cc1cc2ncnn2cc1Nc1ncc2c(n1)n(N1CCOCC1)c(=O)n2C
Result: 8 h

Query: // fetch Tlast given entry Cc1cc2ncnn2cc1Nc1ncc2c(n1)n(N1C3CCC1COC3)c(=O)n2C
Result: 4 h

----------
Assay: Pharmacokinetic evaluation (1): cassette PK in Balb/c male mice, plasma
Type: in vivo
Conditions: male, Balb/c; mouse plasma, IV 1 mg/kg
observable: C0 (µM)
Only the number, expressed in µM, is required.

Query: // fetch C0 given entry Cc1cc2ncnn2cc1Nc1ncc2c(n1)n(N1CC3CCC(C1)O3)c(=O)n2C [Compound 5]
Result: 3.6

----------
Test: Pharmacokinetic evaluation in cynomolgus monkeys
Type: in vivo, Male cynomolgus monkeys
Details: male, 1 mg/kg; cynomolgus monkey plasma, IV 1 mpk
observable: AUC(0-t) (µM·h)
Only the number, expressed in µM·h, is required.

Query: // fetch AUC(0-t) given entry Cc1cc2ncnn2cc1Nc1ncc2c(n1)n(N1CC3CCC(C1)O3)c(=O)n2C [Compound 5]
Result: 2.44

----------
Let's look at some molecules and their measured F.
Assay: Pharmacokinetic evaluation (1): cassette PK in Balb/c male mice, plasma
Type: in vivo
Conditions: mouse, PO 2 mg/kg vs IV 0.4 mg/kg

Previously resolved entries follow.
{"molecule": "Cc1cc2ncnn2cc1Nc1ncc2c(n1)n(N1C3CCC1COC3)c(=O)n2C [Compound 4]", "F": "123%"}
{"molecule": "Cc1cc2ncnn2cc1Nc1ncc2c(n1)n(N1CCOCC1)c(=O)n2C [Compound 1]", "F": "96.4%"}
{"molecule": "Cc1cc2ncnn2cc1Nc1ncc2c(n1)n(N1CCOC3(CC3)C1)c(=O)n2C [Compound 10]", "F": "120%"}

Turning now to a further record.
Query: // fetch F given entry Cc1cc2nncn2cc1Nc1ncc2c(n1)n(N1CC3CCC(C1)O3)c(=O)n2C [Compound 17]
Result: 144%

----------
Assay: Pharmacokinetic and brain exposure evaluation in rats
Format: in vivo, SD male rats
Settings: male, SD, 1 mg/kg; rat plasma, IV 1 mpk
observable: half-life
Answer as a quantity: numeral, then unit.

Query: // fetch half-life given entry Cc1cc2ncnn2cc1Nc1ncc2c(n1)n(N1CC3CCC(C1)O3)c(=O)n2C
Result: 1.45 h

----------
Test: Pharmacokinetic evaluation in Beagle dogs
Format: in vivo, Male Beagle dogs
Conditions: male, 1 mg/kg; Beagle dog plasma, IV 1 mpk
Let's look at some compounds and their measured AUC(0-t).
Only the number, expressed in µM·h, is required.

Query: // fetch AUC(0-t) given entry Cc1cc2ncnn2cc1Nc1ncc2c(n1)n(N1CC3CCC(C1)O3)c(=O)n2C
Result: 4.96

Query: // fetch AUC(0-t) given entry Cc1cc2nncn2cc1Nc1ncc2c(n1)n(N1CC3CCC(C1)O3)c(=O)n2C
Result: 6.82

----------
Test: Pharmacokinetic and brain exposure evaluation in rats
Format: in vivo, SD male rats
Conditions: male, SD, 10 mg/kg; rat plasma, PO 10 mpk; read-out: Cmax
observable: Cmax

Query: // fetch Cmax given entry Cc1cc2nncn2cc1Nc1ncc2c(n1)n(N1CC3CCC(C1)O3)c(=O)n2C [Compound 17]
Result: 6.25 µM

----------
Let's look at some compounds and their measured AUC(0-t).
Test: Pharmacokinetic evaluation in Beagle dogs
Type: in vivo, Male Beagle dogs
Settings: male, 5 mg/kg; Beagle dog plasma, PO 5 mpk

{"smilesRepresentation": "Cc1cc2ncnn2cc1Nc1ncc2c(n1)n(N1CC3CCC(C1)O3)c(=O)n2C", "AUC(0-t)": "68.3 µM·h"}

Query: // fetch AUC(0-t) given entry Cc1cc2nncn2cc1Nc1ncc2c(n1)n(N1CC3CCC(C1)O3)c(=O)n2C
Result: 31.5 µM·h

----------
Assay: Pharmacokinetic evaluation in Beagle dogs
Type: in vivo, Male Beagle dogs
Settings: male, 1 mg/kg; Beagle dog plasma, IV 1 mpk
Protocol: […] Test compounds were mixed with 10% dimethyl sulfoxide/50% polyethylene glycol 200/40% water, vortexed and sonicated to prepare a nearly clear solution of 1 mg/mL, then filtered through a microporous membrane for next step. […] Whole blood was collected for a certain period of time, and plasma was prepared, then drug concentration was detected by LC-MS/MS method, and pharmacokinetic parameters were calculated by Phoenix WinNonlin software (Pharsight, USA).
Let's look at some compounds and their measured clearance.
Only the number, expressed in mL/min/kg, is required.

{"smilesRepresentation": "Cc1cc2ncnn2cc1Nc1ncc2c(n1)n(N1CC3CCC(C1)O3)c(=O)n2C", "clearance [mL/min/kg]": 8.26}

Query: // fetch clearance given entry Cc1cc2nncn2cc1Nc1ncc2c(n1)n(N1CC3CCC(C1)O3)c(=O)n2C
Result: 5.89

----------
Assay: Pharmacokinetic evaluation (1): cassette PK in Balb/c male mice, plasma
Format: in vivo
Conditions: male, Balb/c; mouse plasma, IV 0.4 mg/kg
observable: C0 (nM)
Only the number, expressed in nM, is required.

Previously resolved entries follow.
{"smilesRepresentation": "Cc1cc2nncn2cc1Nc1ncc2c(n1)n(N1CC3CCC(C1)O3)c(=O)n2C", "quantityUnit": "nM", "C0": 748}
{"smilesRepresentation": "Cc1cc2ncnn2cc1Nc1ncc2c(n1)n(N1C3CCC1COC3)c(=O)n2C", "quantityUnit": "nM", "C0": 919}
{"smilesRepresentation": "Cc1cc2ncnn2cc1Nc1ncc2c(n1)n(N1CCOC3(CC3)C1)c(=O)n2C", "quantityUnit": "nM", "C0": 1120}

Turning now to a further record.
Query: // fetch C0 given entry Cc1cc2ncnn2cc1Nc1ncc2c(n1)n(N1CCOCC1)c(=O)n2C
Result: 959

----------
Assay: Pharmacokinetic and brain exposure evaluation in rats
Type: in vivo, SD male rats
Settings: male, SD, 2 mg/kg; rat plasma, IV 2 mpk
observable: clearance (mL/min/kg)
Only the number, expressed in mL/min/kg, is required.

Query: // fetch clearance given entry Cc1cc2nncn2cc1Nc1ncc2c(n1)n(N1CC3CCC(C1)O3)c(=O)n2C
Result: 16.9

----------
Experiment: Pharmacokinetic and brain exposure evaluation in rats
Format: in vivo, SD male rats
Details: male, SD, 2 mg/kg; rat plasma, IV 2 mpk
observable: half-life (h)
Only the number, expressed in h, is required.

Query: // fetch half-life given entry Cc1cc2nncn2cc1Nc1ncc2c(n1)n(N1CC3CCC(C1)O3)c(=O)n2C [Compound 17]
Result: 1.16
